Settings: human
MEASUREMENT_TYPE: in vivo MRT_(hr)_Human

Use these answered entries as a reference point.
COMPOUND: CN1CCN(c2c(F)cc3c(=O)c(C(=O)O)cn(CCF)c3c2F)CC1 [Fleroxacin]
ENDPOINT_RESULT: 10.764 h

COMPOUND: CC(C)(C)NC(=O)[C@H]1CC[C@H]2[C@@H]3CC[C@H]4NC(=O)C=C[C@]4(C)[C@H]3CC[C@]12C [Finasteride]
ENDPOINT_RESULT: 7.639 h

Data request: Param item = CNCCCC12CCC(c3ccccc31)c1ccccc12 [Maprotiline] ; retrieve measured in vivo MRT_(hr)_Human.
Data returned: 53.571 h

###

Examples of molecules with documented fp_Human follow.
Test system: plasma protein
Assay: Measurement of PPB by equilibrium dialysis in pooled human plasma (free fraction)
Details: human plasma free fraction; footnote b: fu is our experimental data

Data request: Identify the measured fp_Human of COC(=O)C1=C(C)NC(C)=C(C(=O)OCCN(C)Cc2ccccc2)C1c1cccc([N+](=O)[O-])c1 (stereo not shown) for plasma protein.
Data returned: 0.00279

###

Assay: Measurement of Rb (blood-to-plasma concentration ratio) in spiked human blood, LC-MS/MS
Format: in vitro ADME
Settings: blood-to-plasma concentration ratio, footnote a: Rb is our experimental data
Please respond with Fulfilled when measured Rb_Human is strictly beneath 0.9, and with Not fulfilled in all other cases.

Check out these entries, answers already filled in.
MOLECULE: COc1ccc(C(CN(C)C)C2(O)CCCCC2)cc1 (centres unmarked) [Venlafaxine]
GROUP: Not fulfilled
--
MOLECULE: N[C@@H]1[C@H]2CN(c3nc4c(cc3F)c(=O)c(C(=O)O)cn4-c3ccc(F)cc3F)C[C@@H]12 [Trovafloxacin]
GROUP: Fulfilled
--
MOLECULE: CC1CCCC(C)N1CCCC(O)(c1ccccc1)c1ccccn1 (centres unmarked) [Pirmenol]
GROUP: Fulfilled

Data request: Check if Rb_Human falls below 0.9 for C=C[C@H]1C[N@@]2CC[C@H]1C[C@@H]2[C@@H](O)c1ccnc2ccc(OC)cc12 [Quinidine] .
Data returned: Not fulfilled

Data request: Check if Rb_Human falls below 0.9 for O=C1C(CC[S+]([O-])c2ccccc2)C(=O)N(c2ccccc2)N1c1ccccc1 (centres unmarked) [Sulfinpyrazone] .
Data returned: Fulfilled

Data request: Check if Rb_Human falls below 0.9 for O=C1NC(=O)C(c2ccccc2)(c2ccccc2)N1 [Phenytoin] .
Data returned: Fulfilled

###

Test: Measurement of Rb (blood-to-plasma concentration ratio) in spiked human blood, LC-MS/MS
Assay type: in vitro ADME
Details: plasma, footnote a: Rb is our experimental data, read-out: Rb_Human (blood-to-plasma concentration ratio)
MEASUREMENT_TYPE: blood plasma ratio at 30 min, 5 µM

Data request: Param item = O=P1(N(CCCl)CCCl)NCCCO1 (stereo not shown) [Cyclophosphamide] ; retrieve measured blood plasma ratio at 30 min, 5 µM.
Data returned: 0.92

###

Conditions: human
Examples of compounds with documented in vivo MRT_(hr)_Human follow.
Could you write the number and then its unit?

COMPOUND: CCCC(C)C1(CC)C(=O)NC(=S)NC1=O (stereo not drawn)
in vivo MRT_(hr)_Human: 2.439 h

Data request: Param item = CCCCC1=NC2(CCCC2)C(=O)N1Cc1ccc(-c2ccccc2-c2nnn[nH]2)cc1 ; retrieve measured in vivo MRT_(hr)_Human.
Data returned: 6.812 h

Data request: Param item = Nc1nc(O)c2ncn(COC(CO)CO)c2n1 ; retrieve measured in vivo MRT_(hr)_Human.
Data returned: 3.623 h

Data request: Param item = CN(C)CCCC1(c2ccc(F)cc2)OCc2cc(C#N)ccc21 (stereo not drawn) ; retrieve measured in vivo MRT_(hr)_Human.
Data returned: 50.388 h

###

Assay: Measurement of Rb (blood-to-plasma concentration ratio) in spiked human blood, LC-MS/MS
Type: in vitro ADME
Settings: blood-to-plasma concentration ratio, footnote a: Rb is our experimental data
Cut-off 1 on Rb_Human, inclusive. At or above means fulfilled; below means not fulfilled.

MOLECULE: COc1cc(NCc2ccc3nc(N)nc(N)c3c2C)cc(OC)c1OC [Trimetrexate]
GROUP: not fulfilled
--
MOLECULE: CC(C)NCC(O)COc1cccc2ccccc12 (stereo not shown) [Propranolol]
GROUP: fulfilled
--
MOLECULE: CC(=O)CC(c1ccccc1)c1c(O)c2ccccc2oc1=O (stereo not shown) [Warfarin]
GROUP: not fulfilled
--
MOLECULE: CC[C@]1(O)C[C@H]2CN(CCc3c([nH]c4ccccc34)[C@@](C(=O)OC)(c3cc4c(cc3OC)N(C=O)[C@H]3[C@@](O)(C(=O)OC)[C@H](OC(C)=O)[C@]5(CC)C=CCN6CC[C@]43[C@@H]65)C2)C1 [Vincristine]
GROUP: fulfilled
--
MOLECULE: CC[C@]1(O)C[C@@H]2CN(CCc3c([nH]c4ccccc34)[C@@](C(=O)OC)(c3cc4c(cc3OC)N(C)[C@H]3[C@@](O)(C(=O)OC)[C@H](OC(C)=O)[C@]5(CC)C=CCN6CC[C@]43[C@@H]65)C2)C1 [Vinblastine]
GROUP: not fulfilled

# ---- query molecule ----
Data request: Check the entry Cn1c(=O)c2[nH]cnc2n(C)c1=O [Theophylline] : does Rb_Human equal or exceed 1?
Data returned: not fulfilled

###

Examples of compounds with documented in vivo MRT_(hr)_Human follow.
Conditions: human
Lab book: enter the figure in h, no units written.

COMPOUND: COCc1c(C(C)C)nc(C(C)C)c(/C=C/[C@@H](O)C[C@@H](O)CC(=O)O)c1-c1ccc(F)cc1
in vivo MRT_(hr)_Human, h: 1.897
//
COMPOUND: CC(C)(C)NC(=O)[C@@H]1CN(Cc2cccnc2)CCN1C[C@@H](O)C[C@@H](Cc1ccccc1)C(=O)N[C@H]1c2ccccc2C[C@H]1O
in vivo MRT_(hr)_Human, h: 0.759
//
COMPOUND: COc1ccc2c(c1)c(CC(=O)O)c(C)n2C(=O)c1ccc(Cl)cc1
in vivo MRT_(hr)_Human, h: 4.958
//
COMPOUND: CC(=O)CC(c1ccccc1)c1c(O)c2ccccc2oc1=O (stereo not drawn)
in vivo MRT_(hr)_Human, h: 33.333
//
COMPOUND: CN(C)CCc1c[nH]c2ccc(CS(=O)(=O)N3CCCC3)cc12
in vivo MRT_(hr)_Human, h: 4.120
//
COMPOUND: Clc1cccc(Cl)c1N=C1NCCN1
in vivo MRT_(hr)_Human, h: 13.750

Data request: Param item = NNc1nncc2ccccc12 [Hydralazine] ; retrieve measured in vivo MRT_(hr)_Human.
Data returned: 0.294

Data request: Param item = Cc1cn([C@H]2C[C@H](N=[N+]=[N-])[C@@H](CO)O2)c(=O)[nH]c1=O ; retrieve measured in vivo MRT_(hr)_Human.
Data returned: 1.067

Data request: Param item = NC(N)=Nc1nc(CSCCC(N)=NS(N)(=O)=O)cs1 ; retrieve measured in vivo MRT_(hr)_Human.
Data returned: 3.030

###

Settings: human
Please respond with rule met when measured in vivo MRT_(hr)_Human is strictly beneath 6 h, and with rule not met in all other cases.

Check out these entries, answers already filled in.
COMPOUND: O=c1ccc2ccccc2o1
GROUP: rule met

COMPOUND: O=C1CN=C(c2ccccc2)c2cc([N+](=O)[O-])ccc2N1
GROUP: rule not met

COMPOUND: Cc1nccn1CC1CCc2c(c3ccccc3n2C)C1=O (stereo not shown)
GROUP: rule met

COMPOUND: O=C(c1ccc(OCCN2CCCCC2)cc1)c1c(-c2ccc(O)cc2)sc2cc(O)ccc12
GROUP: rule not met

COMPOUND: CN(C)CCCN1c2ccccc2Sc2ccc(Cl)cc21
GROUP: rule not met

Data request: Check if in vivo MRT_(hr)_Human falls below 6 h for CNC1(c2ccccc2Cl)CCCCC1=O (stereo not shown) .
Data returned: rule met

Data request: Check if in vivo MRT_(hr)_Human falls below 6 h for CCN(C(C)=O)c1cccc(-c2ccnc3c(C#N)cnn23)c1 .
Data returned: rule met

Data request: Check if in vivo MRT_(hr)_Human falls below 6 h for COc1cc(Cc2cnc(N)nc2N)cc(OC)c1OC .
Data returned: rule not met

###

Assay: Measurement of Rb (blood-to-plasma concentration ratio) in spiked human blood, LC-MS/MS
Assay type: in vitro ADME
Conditions: heparinized human whole blood, footnote a: Rb is our experimental data, read-out: Rb_Human (blood-to-plasma concentration ratio)
Please respond with Met when measured blood plasma ratio at 30 min, 5 µM is strictly beneath 0.6, and with Not met in all other cases.

Check out these entries, answers already filled in.
COMPOUND: Cc1cc(O)c(C(=O)N[C@@H](C(=O)N[C@@H]2C(=O)N3C(C(=O)O)=C(CSc4nnnn4C)CS[C@H]23)c2ccc(O)cc2)cn1 [Cefpiramide]
GROUP: Met
//
COMPOUND: CN(C)CCCC1(c2ccc(F)cc2)OCc2cc(C#N)ccc21 (stereo not drawn) [Citalopram]
GROUP: Not met
//
COMPOUND: COc1c(N2CCNC(C)C2)c(F)cc2c(=O)c(C(=O)O)cn(C3CC3)c12 (stereo not drawn) [Gatifloxacin]
GROUP: Not met
//
COMPOUND: CCCCCNC(=O)c1coc([C@H]2[C@@H](Cc3ccccc3CCC(=O)O)[C@@H]3CC[C@H]2O3)n1 [Ifetroban]
GROUP: Met
//
COMPOUND: CO/N=C(\C(=O)N[C@@H]1C(=O)N2C(C(=O)O)=CCS[C@H]12)c1csc(N)n1 [Ceftizoxime]
GROUP: Met

Data request: Check if blood plasma ratio at 30 min, 5 µM falls below 0.6 for C[C@H]1NCc2cc(-c3ccc4c(=O)c(C(=O)O)cn(C5CC5)c4c3OC(F)F)ccc21 [Garenoxacin] .
Data returned: Not met

Data request: Check if blood plasma ratio at 30 min, 5 µM falls below 0.6 for CO/N=C(\C(=O)N[C@@H]1C(=O)N2C(C(=O)O)=C(CSc3nc(C)c(CC(=O)O)s3)CS[C@H]12)c1csc(N)n1 [Cefodizime] .
Data returned: Met

Data request: Check if blood plasma ratio at 30 min, 5 µM falls below 0.6 for CC(C)N(CCC(C(N)=O)(c1ccccc1)c1ccccn1)C(C)C (stereo not drawn) [Disopyramide] .
Data returned: Not met

Data request: Check if blood plasma ratio at 30 min, 5 µM falls below 0.6 for CN(C)CCc1c[nH]c2ccc(CS(=O)(=O)N3CCCC3)cc12 [Almotriptan] .
Data returned: Not met
